Listing: pKi of selected compounds
# assay-system: JAK1 (Homo sapiens)
# Construct: made in house; host or cells: SF9 insect cells (baculovirus)
# procedure-details: JAK1 inhibition (Table 4)
# Format: biochemical
# condition-details: read-out: JAK1 Ki
Conceptually, pKi converts a concentration in mol/L into minus its log10.

N#CCCN1CCC(n2c(Cc3cccc(C#N)c3)nc3cnc4[nH]ccc4c32)CC1 [Example 405]    7.51

We now examine a further compound.
Data request: Return the recorded pKi value; entry: N#CCC(=O)N1CCCCC(n2cnc3cnc4[nH]ccc4c32)C1 (racemic) [Example 988]
Data returned: 8.38

----------
# assay-system: JAK1 (Homo sapiens, UniProt P23458)
# Construct: made in house; host or cells: SF9 insect cells (baculovirus)
# Sequence (P23458 852-1154): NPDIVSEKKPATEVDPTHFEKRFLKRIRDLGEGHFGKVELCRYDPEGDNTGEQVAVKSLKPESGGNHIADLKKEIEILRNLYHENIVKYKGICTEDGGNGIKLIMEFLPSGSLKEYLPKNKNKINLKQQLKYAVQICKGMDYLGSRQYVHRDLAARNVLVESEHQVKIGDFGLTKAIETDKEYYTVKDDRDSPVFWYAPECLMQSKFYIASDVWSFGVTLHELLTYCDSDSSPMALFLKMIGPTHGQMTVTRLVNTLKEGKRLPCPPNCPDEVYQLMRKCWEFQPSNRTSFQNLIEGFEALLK
# procedure-details: JAK1 inhibition (Table 4)
# Assay type: biochemical
# condition-details: read-out: JAK1 Ki
# thresholds on Ki define classes: c1: < 10 nM; c2: ≥ 10 nM and < 40 nM; c3: ≥ 40 nM

CC(C)(C)OC(=O)NC1CC(n2cnc3cnc4[nH]ccc4c32)C1 (stereo not drawn)    c1
CC1CC(n2cnc3cnc4[nH]ccc4c32)CCN1Cc1ccccc1 (racemic) [Example 128]    c1
COC(=O)NC1CCC(n2nnc3cnc4[nH]ccc4c32)C1 (racemic)    c1
Fc1cccc(CN2CCC(n3cnc4cnc5[nH]ccc5c43)CC2)c1    c1
Fc1cccc(CN2CCC[C@@H](n3cnc4cnc5[nH]ccc5c43)C2)c1    c2
O=C1CCCN1Cc1nc2cnc3[nH]ccc3c2n1C1CCN(Cc2ccccc2)CC1    c2
CC(=O)N1CCC(n2c(C(F)(F)CN)nc3cnc4[nH]ccc4c32)CC1    c3
CN(C)CC(=O)N1CC[C@@H](n2cnc3cnc4[nH]ccc4c32)C1    c3

Data request: Which of the defined bands does the recorded Ki of `N#CCC(=O)N1CC(n2cnc3cnc4[nH]ccc4c32)C1` sit within?
Data returned: c3

Data request: State the band of `CN1CCC[C@H]1CN1CCC(n2cnc3cnc4[nH]ccc4c32)CC1`
Data returned: c3

Just for reference, patent US8461328B2 is where these values come from.
